target: cyclophilin B (CypB) (Homo sapiens (Human)); test: Inhibitor binding to cyclophilin proteins by SPR, CypB; design: unit not given here; conditions: 1:1 binding model
Sequence (P23284 34-216): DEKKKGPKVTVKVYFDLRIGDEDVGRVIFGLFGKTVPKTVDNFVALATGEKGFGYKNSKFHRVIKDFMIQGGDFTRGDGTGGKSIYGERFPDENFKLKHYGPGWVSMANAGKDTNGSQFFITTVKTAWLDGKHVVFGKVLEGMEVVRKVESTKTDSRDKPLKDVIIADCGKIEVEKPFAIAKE
Starred links: 1 amine or outer side, 2 acyl side, 3 side chain; linkers in the order of their positions; H or OH if unused. Non-standard residues stand in square brackets, D forms with d. Residues, ends and D or L forms follow the SMILES beside them. X62 = COCCN1CCN(CCC[C@@H](C)[C@@H](C(=O)[*:2])N(C)[*:1])CC1; X19 = COCCN1CCN(C[C@H](C)[C@@H](C(=O)[*:2])N(C)[*:1])CC1; NMe(dihydroBmt) = CCCC[C@@H](C)[C@@H](O)[C@H](NC)C(=O)O; MeBmt = C/C=C/C[C@@H](C)[C@@H](O)[C@H](NC)C(=O)O; NMeL = CN[C@@H](CC(C)C)C(=O)O; NMeV = CN[C@H](C(=O)O)C(C)C; dNMeA = CN[C@H](C)C(=O)O; Abu = CC[C@H](N)C(=O)O
value_kind: CypB Kd
One number for each entry.

{"columns": ["compound", "reported"],
 "data": [
  ["CCCC[C@@H](C)[C@@H](O)[C@H]1C(=O)N[C@@H](CC)C(=O)N(C)[C@H](C)C(=O)N(C)[C@@H]([C@@H](C)CN2CCN(CCOC)CC2)C(=O)N[C@@H](C(C)C)C(=O)N(C)[C@@H](CC(C)C)C(=O)N[C@@H](C)C(=O)N[C@H](C)C(=O)N(C)[C@@H](CC(C)C)C(=O)N(C)[C@@H](CC(C)C)C(=O)N(C)[C@@H](C(C)C)C(=O)N1C [Compound 2.17.6] (cyclo(A[dA][NMeL][NMeL][NMeV][NMe(dihydroBmt)][Abu][dNMeA][X19]V[NMeL]))", 0.6]
]}

Kindly consider the entry below.
Report CypB Kd for C/C=C/C[C@@H](C)[C@@H](O)[C@H]1C(=O)N[C@@H](CC)C(=O)N(C)[C@H](C)C(=O)N(C)[C@@H]([C@H](C)CCCN2CCN(CCOC)CC2)C(=O)N[C@@H](C(C)C)C(=O)N(C)[C@@H](CC(C)C)C(=O)N[C@@H](C)C(=O)N[C@H](C)C(=O)N(C)[C@@H](CC(C)C)C(=O)N(C)[C@@H](CC(C)C)C(=O)N(C)[C@@H](C(C)C)C(=O)N1C [Compound 2.19.6] (cyclo(A[dA][NMeL][NMeL][NMeV][MeBmt][Abu][dNMeA][X62]V[NMeL]))
0.7

###

target: organic anion transporting polypeptide 1B1 (OATP1B1) (Homo sapiens (Human), UniProt Q9Y6L6); experiment: OATP assay in CHO-OATP1B1 cells;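 further: inhibition of probe substrate uptake into the cells, ten minutes exposure, accumulated substrate read by fluorescence once cells were lysed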
Sequence (Q9Y6L6 whole entry): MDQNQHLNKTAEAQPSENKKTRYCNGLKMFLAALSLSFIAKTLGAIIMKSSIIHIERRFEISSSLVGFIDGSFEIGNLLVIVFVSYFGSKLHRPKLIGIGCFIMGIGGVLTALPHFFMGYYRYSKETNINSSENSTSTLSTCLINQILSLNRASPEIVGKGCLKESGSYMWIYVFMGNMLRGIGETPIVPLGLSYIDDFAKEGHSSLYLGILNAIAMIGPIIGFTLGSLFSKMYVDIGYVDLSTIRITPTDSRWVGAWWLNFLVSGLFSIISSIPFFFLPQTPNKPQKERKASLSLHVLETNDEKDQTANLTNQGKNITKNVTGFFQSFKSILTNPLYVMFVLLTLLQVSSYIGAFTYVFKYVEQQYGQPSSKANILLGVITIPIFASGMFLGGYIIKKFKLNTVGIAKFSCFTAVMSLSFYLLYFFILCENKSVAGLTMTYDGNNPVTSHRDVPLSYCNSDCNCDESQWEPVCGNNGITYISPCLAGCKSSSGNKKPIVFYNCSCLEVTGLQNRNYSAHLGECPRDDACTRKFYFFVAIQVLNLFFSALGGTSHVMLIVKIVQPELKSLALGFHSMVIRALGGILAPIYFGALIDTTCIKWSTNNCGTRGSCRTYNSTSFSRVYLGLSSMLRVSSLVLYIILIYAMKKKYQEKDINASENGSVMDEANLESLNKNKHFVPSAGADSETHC
Starred links: 1 amine or outer side, 2 acyl side, 3 side chain; linkers in the order of their positions; H or OH if unused. Non-standard residues stand in square brackets, D forms with d. Residues, ends and D or L forms follow the SMILES beside them. X73 = CO[C@H]1CCN(CCOC[C@@H](C)[C@@H](C(=O)[*:2])N(C)[*:1])C1; X19 = COCCN1CCN(C[C@H](C)[C@@H](C(=O)[*:2])N(C)[*:1])CC1; MeBmt = C/C=C/C[C@@H](C)[C@@H](O)[C@H](NC)C(=O)O; NMeL = CN[C@@H](CC(C)C)C(=O)O; NMeV = CN[C@H](C(=O)O)C(C)C; dNMeA = CN[C@H](C)C(=O)O; Abu = CC[C@H](N)C(=O)O
value_kind: pIC50
Give bare numbers, as −log10 of the molar value.

Reference set (2 entries):
{"columns": ["compound", "pIC50"],
 "data": [
  ["C/C=C/C[C@@H](C)[C@@H](O)[C@H]1C(=O)N[C@@H](CC)C(=O)N(C)[C@H](C)C(=O)N(C)[C@@H]([C@@H](C)CN2CCN(CCOC)CC2)C(=O)N[C@@H](C(C)C)C(=O)N(C)[C@@H](CC(C)C)C(=O)N[C@@H](C)C(=O)N[C@H](C)C(=O)N(C)[C@@H](CC(C)C)C(=O)N(C)[C@@H](CC(C)C)C(=O)N(C)[C@@H](C(C)C)C(=O)N1C [Compound 2.17.4] (cyclo(A[dA][NMeL][NMeL][NMeV][MeBmt][Abu][dNMeA][X19]V[NMeL]))", 5.49],
  ["C/C=C/C[C@@H](C)[C@@H](O)[C@H]1C(=O)N[C@@H](CC)C(=O)N(C)[C@H](C)C(=O)N(C)[C@@H]([C@H](C)COCCN2CC[C@H](OC)C2)C(=O)N[C@@H](C(C)C)C(=O)N(C)[C@@H](CC(C)C)C(=O)N[C@@H](C)C(=O)N[C@H](C)C(=O)N(C)[C@@H](CC(C)C)C(=O)N(C)[C@@H](CC(C)C)C(=O)N(C)[C@@H](C(C)C)C(=O)N1C [Compound 2.8.7] (cyclo(A[dA][NMeL][NMeL][NMeV][MeBmt][Abu][dNMeA][X73]V[NMeL]))", 5.30]
]}

Kindly consider the entry below.
Report pIC50 for C/C=C/C[C@@H](C)[C@@H](O)[C@H]1C(=O)N[C@@H](CC)C(=O)N(C)[C@H](C)C(=O)N(C)[C@@H]([C@H](C)CCCN2CCC(OC)CC2)C(=O)N[C@@H](C(C)C)C(=O)N(C)[C@@H](CC(C)C)C(=O)N[C@@H](C)C(=O)N[C@H](C)C(=O)N(C)[C@@H](CC(C)C)C(=O)N(C)[C@@H](CC(C)C)C(=O)N(C)[C@@H](C(C)C)C(=O)N1C (stereo in doubt)
5.37

###

biological target: CypF (Homo sapiens (Human)); test: Inhibitor binding to cyclophilin proteins by SPR, CypF; conditions: 1:1 binding model
Sequence (P30405 30-207): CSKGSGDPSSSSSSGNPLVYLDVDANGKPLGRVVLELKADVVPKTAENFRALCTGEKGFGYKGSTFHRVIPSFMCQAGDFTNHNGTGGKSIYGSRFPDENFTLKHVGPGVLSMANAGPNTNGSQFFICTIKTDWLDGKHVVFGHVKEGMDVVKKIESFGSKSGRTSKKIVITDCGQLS
Starred links: 1 amine or outer side, 2 acyl side, 3 side chain; linkers in the order of their positions; H or OH if unused. Non-standard residues stand in square brackets, D forms with d. Residues, ends and D or L forms follow the SMILES beside them. X28 = CCN1CCN(C(=O)OC[C@H](C)[C@@H](C(=O)[*:2])N(C)[*:1])CC1; X69 = C[C@H](CCCN1CCC(C(N)=O)CC1)[C@@H](C(=O)[*:2])N(C)[*:1]; X72 = C[C@H](CCN1CCN(C2CCC2)CC1)[C@@H](C(=O)[*:2])N(C)[*:1]; X19 = COCCN1CCN(C[C@H](C)[C@@H](C(=O)[*:2])N(C)[*:1])CC1; NMe(dihydroBmt) = CCCC[C@@H](C)[C@@H](O)[C@H](NC)C(=O)O; X47 = C[C@H](CN1CCC(F)(F)C1)[C@@H](C(=O)[*:2])N(C)[*:1]; X53 = C[C@H](CN(C)Cc1cccnc1)[C@@H](C(=O)[*:2])N(C)[*:1]; X23 = COC1CN(C[C@@H](C)[C@@H](C(=O)[*:2])N(C)[*:1])C1; MeBmt = C/C=C/C[C@@H](C)[C@@H](O)[C@H](NC)C(=O)O; X2 = COCC[C@@H](C)[C@@H](C(=O)[*:2])N(C)[*:1]; NMeL = CN[C@@H](CC(C)C)C(=O)O; NMeV = CN[C@H](C(=O)O)C(C)C; dNMeA = CN[C@H](C)C(=O)O; Abu = CC[C@H](N)C(=O)O
value_kind: CypF Kd (nM)
Answers are plain numbers, in nM.

For each of the compounds below, note its CypF Kd.
1. C/C=C/C[C@@H](C)[C@@H](O)[C@H]1C(=O)N[C@@H](CC)C(=O)N(C)[C@H](C)C(=O)N(C)[C@@H]([C@H](C)CCN2CCN(C3CCC3)CC2)C(=O)N[C@@H](C(C)C)C(=O)N(C)[C@@H](CC(C)C)C(=O)N[C@@H](C)C(=O)N[C@H](C)C(=O)N(C)[C@@H](CC(C)C)C(=O)N(C)[C@@H](CC(C)C)C(=O)N(C)[C@@H](C(C)C)C(=O)N1C [Compound 2.18.10] (cyclo(A[dA][NMeL][NMeL][NMeV][MeBmt][Abu][dNMeA][X72]V[NMeL]))
2. CCCC[C@@H](C)[C@@H](O)[C@H]1C(=O)N[C@@H](CC)C(=O)N(C)[C@H](C)C(=O)N(C)[C@@H]([C@H](C)COCCN2CCOCC2)C(=O)N[C@@H](C(C)C)C(=O)N(C)[C@@H](CC(C)C)C(=O)N[C@@H](C)C(=O)N[C@H](C)C(=O)N(C)[C@@H](CC(C)C)C(=O)N(C)[C@@H](CC(C)C)C(=O)N(C)[C@@H](C(C)C)C(=O)N1C [Compound 2.8.10]
3. C/C=C/C[C@@H](C)[C@@H](O)[C@H]1C(=O)N[C@@H](CC)C(=O)N(C)[C@H](C)C(=O)N(C)[C@@H]([C@H](C)CN2CCC(F)(F)C2)C(=O)N[C@@H](C(C)C)C(=O)N(C)[C@@H](CC(C)C)C(=O)N[C@@H](C)C(=O)N[C@H](C)C(=O)N(C)[C@@H](CC(C)C)C(=O)N(C)[C@@H](CC(C)C)C(=O)N(C)[C@@H](C(C)C)C(=O)N1C [Compound 2.5.18] (cyclo(A[dA][NMeL][NMeL][NMeV][MeBmt][Abu][dNMeA][X47]V[NMeL]))
4. C/C=C/C[C@@H](C)[C@@H](O)[C@H]1C(=O)N[C@@H](CC)C(=O)N(C)[C@H](C)C(=O)N(C)[C@@H]([C@H](C)CCCN2CCC(C(N)=O)CC2)C(=O)N[C@@H](C(C)C)C(=O)N(C)[C@@H](CC(C)C)C(=O)N[C@@H](C)C(=O)N[C@H](C)C(=O)N(C)[C@@H](CC(C)C)C(=O)N(C)[C@@H](CC(C)C)C(=O)N(C)[C@@H](C(C)C)C(=O)N1C [Compound 2.19.2] (cyclo(A[dA][NMeL][NMeL][NMeV][MeBmt][Abu][dNMeA][X69]V[NMeL]))
5. C/C=C/C[C@@H](C)[C@@H](O)[C@H]1C(=O)N[C@@H](CC)C(=O)N(C)[C@H](C)C(=O)N(C)[C@@H]([C@H](C)CCOC)C(=O)N[C@@H](C(C)C)C(=O)N(C)[C@@H](CC(C)C)C(=O)N[C@@H](C)C(=O)N[C@H](C)C(=O)N(C)[C@@H](CC(C)C)C(=O)N(C)[C@@H](CC(C)C)C(=O)N(C)[C@@H](C(C)C)C(=O)N1C [Compound 2.13] (cyclo(A[dA][NMeL][NMeL][NMeV][MeBmt][Abu][dNMeA][X2]V[NMeL]))
6. C/C=C/C[C@@H](C)[C@@H](O)[C@H]1C(=O)N[C@@H](CC)C(=O)N(C)[C@H](C)C(=O)N(C)[C@@H]([C@@H](C)COC(=O)N2CCN(CC)CC2)C(=O)N[C@@H](C(C)C)C(=O)N(C)[C@@H](CC(C)C)C(=O)N[C@@H](C)C(=O)N[C@H](C)C(=O)N(C)[C@@H](CC(C)C)C(=O)N(C)[C@@H](CC(C)C)C(=O)N(C)[C@@H](C(C)C)C(=O)N1C [Compound 2.17.14] (cyclo(A[dA][NMeL][NMeL][NMeV][MeBmt][Abu][dNMeA][X28]V[NMeL]))

0.7
1.1
2
0.5
0.8
0.5

For each of the compounds below, note its CypF Kd.
1. C/C=C/C[C@@H](C)[C@@H](O)[C@H]1C(=O)N[C@@H](CC)C(=O)N(C)[C@H](CCCO)C(=O)N(C)[C@@H]([C@H](C)CS(C)(=O)=O)C(=O)N[C@@H](C(C)C)C(=O)N(C)[C@@H](CC(C)C)C(=O)N[C@@H](C)C(=O)N[C@H](C)C(=O)N(C)[C@@H](CC(C)C)C(=O)N(C)[C@@H](CC(C)C)C(=O)N(C)[C@@H](C(C)C)C(=O)N1C (stereo in doubt) [Compound 3.4.1]
2. CCCC[C@@H](C)[C@@H](O)[C@H]1C(=O)N[C@@H](CC)C(=O)N(C)[C@H](C)C(=O)N(C)[C@@H]([C@@H](C)CN2CCN(CCOC)CC2)C(=O)N[C@@H](C(C)C)C(=O)N(C)[C@@H](CC(C)C)C(=O)N[C@@H](C)C(=O)N[C@H](C)C(=O)N(C)[C@@H](CC(C)C)C(=O)N(C)[C@@H](CC(C)C)C(=O)N(C)[C@@H](C(C)C)C(=O)N1C [Compound 2.17.6] (cyclo(A[dA][NMeL][NMeL][NMeV][NMe(dihydroBmt)][Abu][dNMeA][X19]V[NMeL]))
3. C/C=C/C[C@@H](C)[C@@H](O)[C@H]1C(=O)N[C@@H](CC)C(=O)N(C)[C@H](C)C(=O)N(C)[C@@H]([C@H](C)CN(C)Cc2cccnc2)C(=O)N[C@@H](C(C)C)C(=O)N(C)[C@@H](CC(C)C)C(=O)N[C@@H](C)C(=O)N[C@H](C)C(=O)N(C)[C@@H](CC(C)C)C(=O)N(C)[C@@H](CC(C)C)C(=O)N(C)[C@@H](C(C)C)C(=O)N1C [Compound 2.5.25] (cyclo(A[dA][NMeL][NMeL][NMeV][MeBmt][Abu][dNMeA][X53]V[NMeL]))
4. C/C=C/C[C@@H](C)[C@@H](O)[C@H]1C(=O)N[C@@H](CC)C(=O)N(C)[C@H](C)C(=O)N(C)[C@@H]([C@H](C)CN2CC(OC)C2)C(=O)N[C@@H](C(C)C)C(=O)N(C)[C@@H](CC(C)C)C(=O)N[C@@H](C)C(=O)N[C@H](C)C(=O)N(C)[C@@H](CC(C)C)C(=O)N(C)[C@@H](CC(C)C)C(=O)N(C)[C@@H](C(C)C)C(=O)N1C [Compound 2.5.17] (cyclo(A[dA][NMeL][NMeL][NMeV][MeBmt][Abu][dNMeA][X23]V[NMeL]))

3.8
0.5
1
1

Where do the numbers come from? From patent US9566312B2.
